Origin of measurements: the RNAGym collection of RNA variant scans (doi:10.1073/pnas.2313332121)

B1: TPR 5TU (parent)
chain: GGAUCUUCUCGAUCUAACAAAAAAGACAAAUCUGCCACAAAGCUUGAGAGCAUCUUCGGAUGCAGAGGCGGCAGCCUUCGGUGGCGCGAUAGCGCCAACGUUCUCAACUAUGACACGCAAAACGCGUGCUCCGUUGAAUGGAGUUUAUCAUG

# Variants of: B1
# experimental_details: polymerase ribozyme fitness, log enrichment relative to wild type (log ratio); higher = more active; in vitro selection for triplet polymerase activity
This sample holds only a part of the variants without activity.
quantity_name: polymerase ribozyme fitness (log ratio)

INSERT INTO results (changes, result) VALUES
  ('U31C A39C C54U A73G U90G G124A', '≤ -4.2'),
  ('U53A C54A G58A C85U', -0.519),
  ('U31A U44A A52C G71U G83C G86A A97C U104A', '≤ -4.2'),
  ('G42A C93A U102G U135A', '≤ -4.2'),
  ('C5U U13A C14A U53A U55A C76A A120U G124C', '≤ -4.2'),
  ('G50A U55A G70A G83C U101A U104A C105G G124U', '≤ -4.2'),
  ('U6C A21U U101A U104A U148A', '≤ -4.2'),
  ('C114G G140C G141U', '≤ -4.2');

Hey, quick one: what's polymerase ribozyme fitness (log ratio) for each of these?
1. U61A C105U U134G U139G
2. A39U G50U G83A C96G C103U U135G
3. C14A U102G

1. -4.18
2. ≤ -4.2
3. ≤ -4.2

Hey, quick one: what's polymerase ribozyme fitness (log ratio) for each of these?
1. A110U G128A
2. G94A G117U
3. A49C C85U
4. A3G C18U C27G A28U U78A
5. A16U A19G U31A C38U G42C U44G G59U C96G
6. G59C C85U

1. ≤ -4.2
2. -0.469
3. -3.49
4. ≤ -4.2
5. ≤ -4.2
6. -0.507

Hey, quick one: what's polymerase ribozyme fitness (log ratio) for each of these?
1. U13G A21C G48U
2. A23C A30C G50A A66G C96A A98U G128C
3. A17G G50C A137G U144G
4. C75G C93U
5. C85U U130G

1. -1.33
2. ≤ -4.2
3. ≤ -4.2
4. -3.74
5. -3.71
